Molecular target: hKv1.5 (Homo sapiens, UniProt P22460)
Sequence (P22460 whole entry): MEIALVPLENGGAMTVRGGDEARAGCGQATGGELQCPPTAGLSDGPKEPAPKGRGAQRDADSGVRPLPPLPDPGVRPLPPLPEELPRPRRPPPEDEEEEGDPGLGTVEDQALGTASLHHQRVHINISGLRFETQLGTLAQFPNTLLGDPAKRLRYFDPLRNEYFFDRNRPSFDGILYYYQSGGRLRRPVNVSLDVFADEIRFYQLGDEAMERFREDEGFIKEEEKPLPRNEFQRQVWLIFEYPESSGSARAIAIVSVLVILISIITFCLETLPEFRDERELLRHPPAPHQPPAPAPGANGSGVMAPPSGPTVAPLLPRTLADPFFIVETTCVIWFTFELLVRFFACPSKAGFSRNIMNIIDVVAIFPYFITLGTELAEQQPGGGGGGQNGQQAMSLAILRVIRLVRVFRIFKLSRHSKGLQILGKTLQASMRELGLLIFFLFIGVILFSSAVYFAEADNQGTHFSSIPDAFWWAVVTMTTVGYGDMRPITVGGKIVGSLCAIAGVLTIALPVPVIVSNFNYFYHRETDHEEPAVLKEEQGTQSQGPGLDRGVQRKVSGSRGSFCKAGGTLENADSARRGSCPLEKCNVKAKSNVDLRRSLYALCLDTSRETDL
Experiment: hKv1.5 % inhibition at 300 nM (Table 1)
Assay type: cell-based
Details: 300 nM
measured-metric: hKv1.5 % inh. 300 nM (%)
Kindly answer with a numeric value in %, unit omitted.

The cases that follow already have their hKv1.5 % inh. 300 nM on record.
{"compound": "CC(C)N1C(=O)c2ccc(N(Cc3ccc(Cl)cc3)S(=O)(=O)c3cn(C)cn3)cc2C1=O [Example 17]", "hKv1.5 % inh. 300 nM (%)": 58.0}
{"compound": "CCN1Cc2ccc(N(Cc3ccc(Cl)cc3)S(=O)(=O)c3cccc(C#N)c3)cc2C1=O [Example 11]", "hKv1.5 % inh. 300 nM (%)": 86.9}
{"compound": "CCN1Cc2ccc(N(Cc3ccc(Cl)cc3)S(=O)(=O)c3cccnc3)cc2C1=O [Example 2]", "hKv1.5 % inh. 300 nM (%)": 65.0}

Request: Request - read-out hKv1.5 % inh. 300 nM | tested on hKv1.5 (Homo sapiens, UniProt P22460) | compound CCN1Cc2cc(N(Cc3ccc(Cl)cc3)S(=O)(=O)c3cccc(C#N)c3)ccc2C1=O [Example 12]
Response: 63.2

Request: Request - read-out hKv1.5 % inh. 300 nM | tested on hKv1.5 (Homo sapiens, UniProt P22460) | compound CC1(C)CNC(=O)c2cc(N(Cc3ccc(Cl)cc3)S(=O)(=O)c3cccnc3)ccc21 [Example 15]
Response: 70.0

----------
Biological target: hKv1.3 (Homo sapiens, UniProt P22001)
Sequence (P22001 whole entry): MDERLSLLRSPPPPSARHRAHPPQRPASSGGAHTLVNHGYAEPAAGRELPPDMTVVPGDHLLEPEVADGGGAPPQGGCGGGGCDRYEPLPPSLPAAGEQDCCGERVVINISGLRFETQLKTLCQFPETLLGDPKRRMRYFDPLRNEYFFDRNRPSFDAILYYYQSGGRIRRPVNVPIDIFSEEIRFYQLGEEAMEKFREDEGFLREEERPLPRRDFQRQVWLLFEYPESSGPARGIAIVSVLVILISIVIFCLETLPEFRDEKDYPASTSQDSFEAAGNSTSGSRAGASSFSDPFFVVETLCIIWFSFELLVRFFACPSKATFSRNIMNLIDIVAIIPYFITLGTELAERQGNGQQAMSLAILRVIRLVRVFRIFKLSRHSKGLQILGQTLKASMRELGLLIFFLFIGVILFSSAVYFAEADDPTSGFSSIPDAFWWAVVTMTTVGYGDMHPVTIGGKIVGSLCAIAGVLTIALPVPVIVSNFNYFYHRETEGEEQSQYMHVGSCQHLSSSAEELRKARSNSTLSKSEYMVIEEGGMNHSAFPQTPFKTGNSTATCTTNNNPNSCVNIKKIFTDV
Assay: hKv1.3 % inhibition at 1 uM (Table 1)
Assay type: cell-based
Conditions: read-out: hKv1.3 % inh. 1 uM
# cutoff 90% applies to inhibition at 1 µM; >= gives T, < gives F

Solved cases (8 shown):
{"smiles-record": "CCN1Cc2cc(N(Cc3ccc(Cl)cc3)S(=O)(=O)c3ccn(C)n3)ccc2C1=O", "category-label": "F"}
{"smiles-record": "Cn1ccc(S(=O)(=O)N(Cc2ccc(Cl)cc2)c2ccc3c(c2)C(=O)NCC3)n1", "category-label": "T"}
{"smiles-record": "Cn1cnc(S(=O)(=O)N(Cc2ccc(Cl)cc2)c2ccc3c(c2)C(=O)NCC3(C)C)c1", "category-label": "F"}
{"smiles-record": "CCN1Cc2ccc(N(Cc3ccc(Cl)cc3)S(=O)(=O)c3ccn(C)n3)cc2C1=O", "category-label": "T"}
{"smiles-record": "CCN1CC(C)(C)c2ccc(N(Cc3ccc(Cl)cc3)S(=O)(=O)c3cn(C)cn3)cc2C1=O", "category-label": "T"}
{"smiles-record": "N#Cc1cccc(S(=O)(=O)N(Cc2ccc(Cl)cc2)c2ccc3c(c2)C(=O)NCC3)c1", "category-label": "T"}
{"smiles-record": "CCN1CCc2ccc(N(Cc3ccc(Cl)cc3)S(=O)(=O)c3ccn(C)n3)cc2C1=O", "category-label": "T"}
{"smiles-record": "Cn1ccc(S(=O)(=O)N(Cc2ccc(Cl)cc2)c2ccc3c(c2)C(=O)N(CCO)CC3)n1", "category-label": "T"}

Request: Record `O=C1c2cc(N(Cc3ccc(Cl)cc3)S(=O)(=O)c3cccnc3)ccc2CCN1CCO` ; criterion: inhibition at 1 µM no lower than 90%. Met?
Response: T

Request: Record `CCN1Cc2cc(N(Cc3ccc(Cl)cc3)S(=O)(=O)c3cn(C)cn3)ccc2C1=O` ; criterion: inhibition at 1 µM no lower than 90%. Met?
Response: F

Request: Record `CCN1CCc2cc(N(Cc3ccccc3)S(=O)(=O)c3cn(C)cn3)ccc2C1=O` ; criterion: inhibition at 1 µM no lower than 90%. Met?
Response: F

Request: Record `CN1CCc2ccc(N(Cc3ccc(Cl)cc3)S(=O)(=O)c3ccn(C)n3)cc2C1=O` ; criterion: inhibition at 1 µM no lower than 90%. Met?
Response: T

Attribution: patent US8399481B2
